- Tested on: Streptococcus pyogenes
- assay.name: Antibacterial activity against constitutive macrolide, licosamide and streptogramin-resistant Streptococcus pyogenes 166 GR-Micro by broth microdilution technique
- Format: functional
Please provide measured MIC for the entries that follow.
The answer is to be given in mg/L; state only the numeric part.

Q) Give recorded MIC. `CCOC(=O)c1cn(C2CC2)c2ccc(CCCN3CCN(CCC(=O)O[C@H]4[C@H](C)O[C@@H](O[C@H]5[C@H](C)[C@@H](O[C@@H]6O[C@H](C)C[C@H](N(C)C)[C@H]6O)[C@](C)(O)C[C@@H](C)CN(C)[C@H](C)[C@@H](OC)[C@](C)(O)[C@@H](CC)OC(=O)[C@@H]5C)C[C@@]4(C)OC)CC3)cc2c1=O`
A) 32

Q) Give recorded MIC. `CCOC(=O)c1cn(C2CC2)c2ccc(C#CCN3CCN(CCC(=O)O[C@H]4[C@H](C)O[C@@H](O[C@H]5[C@H](C)[C@@H](O[C@@H]6O[C@H](C)C[C@H](N(C)C)[C@H]6O)[C@](C)(O)C[C@@H](C)CN(C)[C@H](C)[C@@H](OC)[C@](C)(O)[C@@H](CC)OC(=O)[C@@H]5C)C[C@@]4(C)OC)CC3)cc2c1=O`
A) 32

Q) Give recorded MIC. `CCOC(=O)c1cn(C2CC2)c2ccc(CCCN3CCN(CCC(=O)O[C@H]4[C@H](C)O[C@@H](O[C@H]5[C@H](C)[C@@H](O[C@@H]6O[C@H](C)C[C@H](N(C)C)[C@H]6O)[C@](C)(OC)C[C@@H](C)C(=O)[C@H](C)[C@@H](O)[C@](C)(O)[C@@H](CC)OC(=O)[C@@H]5C)C[C@@]4(C)OC)CC3)cc2c1=O`
A) 16

Q) Give recorded MIC. `CCOC(=O)c1cn(CC)c2ccc(C#CCN3CCN(CCC(=O)O[C@H]4[C@H](C)O[C@@H](O[C@H]5[C@H](C)[C@@H](O[C@@H]6O[C@H](C)C[C@H](N(C)C)[C@H]6O)[C@](C)(O)C[C@@H](C)CN(C)[C@H](C)[C@@H](OC)[C@](C)(O)[C@@H](CC)OC(=O)[C@@H]5C)C[C@@]4(C)OC)CC3)cc2c1=O`
A) 32

Q) Give recorded MIC. `CCOC(=O)c1cn(CC)c2ccc(CCCN3CCN(CCC(=O)O[C@H]4[C@H](C)O[C@@H](O[C@H]5[C@H](C)[C@@H](O[C@@H]6O[C@H](C)C[C@H](N(C)C)[C@H]6O)[C@](C)(OC)C[C@@H](C)C(=O)[C@H](C)[C@@H](O)[C@](C)(O)[C@@H](CC)OC(=O)[C@@H]5C)C[C@@]4(C)OC)CC3)cc2c1=O`
A) 16

###

- System: Staphylococcus aureus
- assay.name: Antibacterial activity against constitutive macrolide, licosamide and streptogramin-resistant Staphylococcus aureus PK2 by broth microdilution technique
- Assay type: functional
Please provide measured MIC for the entries that follow.

Q) Give recorded MIC. `CCOC(=O)c1cn(C2CC2)c2ccc(CCCN3CCN(CCC(=O)O[C@H]4[C@H](C)O[C@@H](O[C@H]5[C@H](C)[C@@H](O[C@@H]6O[C@H](C)C[C@H](N(C)C)[C@H]6O)[C@](C)(O)C[C@@H](C)CN(C)[C@H](C)[C@@H](OC)[C@](C)(O)[C@@H](CC)OC(=O)[C@@H]5C)C[C@@]4(C)OC)CC3)cc2c1=O`
A) > 64 µg/mL

Q) Give recorded MIC. `CC[C@H]1OC(=O)[C@H](C)[C@@H](O[C@H]2C[C@@](C)(OC)[C@@H](OCCCN3CCN(CCCc4ccc5c(c4)c(=O)c(C(=O)O)cn5CC)CC3)[C@H](C)O2)[C@H](C)[C@@H](O[C@@H]2O[C@H](C)C[C@H](N(C)C)[C@H]2O)[C@](C)(O)C[C@@H](C)CN(C)[C@H](C)[C@@H](O)[C@]1(C)O`
A) > 64 µg/mL

Q) Give recorded MIC. `CCOC(=O)c1cn(C2CC2)c2ccc(C#CCN3CCN(CCC(=O)O[C@H]4[C@H](C)O[C@@H](O[C@H]5[C@H](C)[C@@H](O[C@@H]6O[C@H](C)C[C@H](N(C)C)[C@H]6O)[C@](C)(OC)C[C@@H](C)C(=O)[C@H](C)[C@@H](O)[C@](C)(O)[C@@H](CC)OC(=O)[C@@H]5C)C[C@@]4(C)OC)CC3)cc2c1=O`
A) > 64 µg/mL
